- system_under_test: WT nNOSoxy (oxygenase domain of rat neuronal nitric oxide synthase) (Rattus norvegicus, UniProt P29476, V567S)
- Construct: gene Nos1; oxygenase domain, aa 1-720 plus 6-histidine tag, plasmid pCWnNOSoxy, E. coli BL21(DE3), HisTrap purification
- Sequence (P29476 1-720 V567S): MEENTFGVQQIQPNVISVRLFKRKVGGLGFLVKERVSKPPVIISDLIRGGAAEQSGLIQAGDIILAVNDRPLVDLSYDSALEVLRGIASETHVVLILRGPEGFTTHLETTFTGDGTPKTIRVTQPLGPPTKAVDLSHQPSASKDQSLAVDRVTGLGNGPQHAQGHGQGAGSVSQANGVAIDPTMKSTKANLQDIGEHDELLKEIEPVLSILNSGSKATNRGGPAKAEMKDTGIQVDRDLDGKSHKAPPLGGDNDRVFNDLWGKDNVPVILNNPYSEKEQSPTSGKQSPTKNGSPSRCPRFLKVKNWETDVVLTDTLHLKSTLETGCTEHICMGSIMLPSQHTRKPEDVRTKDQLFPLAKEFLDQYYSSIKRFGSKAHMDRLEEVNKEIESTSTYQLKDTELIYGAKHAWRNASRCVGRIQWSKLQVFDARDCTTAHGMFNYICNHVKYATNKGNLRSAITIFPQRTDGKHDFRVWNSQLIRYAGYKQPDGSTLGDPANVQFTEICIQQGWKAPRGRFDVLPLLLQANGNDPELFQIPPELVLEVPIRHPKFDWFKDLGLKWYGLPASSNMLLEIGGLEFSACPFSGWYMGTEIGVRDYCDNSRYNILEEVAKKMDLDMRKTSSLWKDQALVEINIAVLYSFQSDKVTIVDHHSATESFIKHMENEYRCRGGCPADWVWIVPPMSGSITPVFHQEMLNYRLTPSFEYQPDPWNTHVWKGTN
- measurement_protocol: UV-visible difference spectroscopy, heme-Fe(III)-imidazole complex formation
- Format: binding
- cond: read-out: Val567Ser
test_readout: Kd (µM)

[[record]]
smiles_repr = "c1c[nH]cn1"
numeric_value = 140


###

- system_under_test: WT nNOSoxy (oxygenase domain of rat neuronal nitric oxide synthase) (Rattus norvegicus)
- Construct: oxygenase domain, aa 1-720 plus 6-histidine tag, plasmid pCWnNOSoxy, E. coli BL21(DE3), HisTrap purification
- measurement_protocol: UV-visible difference spectroscopy, heme-Fe(III)-imidazole complex formation
test_readout: Kd (µM)

[[record]]
compound = "c1c[nH]cn1 [imidazole]"
test_readout = "Kd"
unit_descriptor = "µM"
numeric_value = 76.3


Where these numbers come from: paper PMC6120233
